The values you see were collected from patent US8735553.

# target.of.assay: P3Z chimeric PD-1 receptor (human)
# Sequence (chain, as listed by the source mutant limits assumed): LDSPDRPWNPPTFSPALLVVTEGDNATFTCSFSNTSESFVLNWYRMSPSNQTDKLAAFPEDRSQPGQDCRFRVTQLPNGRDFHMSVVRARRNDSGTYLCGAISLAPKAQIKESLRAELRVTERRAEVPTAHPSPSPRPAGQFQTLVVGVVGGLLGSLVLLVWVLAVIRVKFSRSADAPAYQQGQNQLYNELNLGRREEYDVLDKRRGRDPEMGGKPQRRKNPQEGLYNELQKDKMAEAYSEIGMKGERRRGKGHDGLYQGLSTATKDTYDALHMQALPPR
# method.description: cell-based or functional assay
Would you kindly list IL-2 release in HuT78/P3Z, Max inhibition for each of these binders?
Give the number; % is assumed, so skip it.

Identify measured IL-2 release in HuT78/P3Z, Max inhibition corresponding to Fab hu317-1_Vh / hu317-1_Vκ (Fab, V domains shown) VH: QVQLQESGPGLVKPSETLSLTCTVSGFSLTSYGVHWIRQPPGKGLEWLGVIWAGGSTNYNPSLKSRLTISKDNSKSQVSLKMSSVTAADTAVYYCARAYGNYWYIDVWGQGTTVTVSS VL: DIVMTQSPDSLAVSLGERATINCKASQSVSNDVAWYQQKPGQPPKLLINYAFHRFTGVPDRFSGSGYGTDFTLTISSLQAEDVAVYYCHQAYSSPYTFGGGTKLEIK 98.8

Identify measured IL-2 release in HuT78/P3Z, Max inhibition corresponding to Fab hu317-2_L48I / hu317-1_Vκ (Fab, V domains shown) VH: QVQLQESGPGLVKPSETLSLTCTVSGFSLTSYGVHWIRQPPGKGLEWIGVIWAGGSTNYNPSLKSRLTISKDNSKSQVSLKMSSVTAADTAVYYCARAYGNYWYIDVWGQGTTVTVSS VL: DIVMTQSPDSLAVSLGERATINCKASQSVSNDVAWYQQKPGQPPKLLINYAFHRFTGVPDRFSGSGYGTDFTLTISSLQAEDVAVYYCHQAYSSPYTFGGGTKLEIK 98.5

Identify measured IL-2 release in HuT78/P3Z, Max inhibition corresponding to Fab hu317-2_L67V / hu317-1_Vκ (Fab, V domains shown) VH: QVQLQESGPGLVKPSETLSLTCTVSGFSLTSYGVHWIRQPPGKGLEWLGVIWAGGSTNYNPSLKSRVTISKDNSKSQVSLKMSSVTAADTAVYYCARAYGNYWYIDVWGQGTTVTVSS VL: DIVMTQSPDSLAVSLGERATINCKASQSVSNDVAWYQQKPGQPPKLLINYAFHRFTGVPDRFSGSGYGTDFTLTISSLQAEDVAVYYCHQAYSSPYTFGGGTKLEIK 98.6

Identify measured IL-2 release in HuT78/P3Z, Max inhibition corresponding to Fab hu317-3A / hu317-1_Vκ (Fab, V domains shown) VH: QVQLQESGPGLVKPSETLSLTCTVSGFSLTSYGVHWIRQPPGKGLEWIGVIWAGGSTNYNPSLKSRVTISVDTSKNQFSLKLSSVTAADTAVYYCARAYGNYWYIDVWGQGTTVTVSS VL: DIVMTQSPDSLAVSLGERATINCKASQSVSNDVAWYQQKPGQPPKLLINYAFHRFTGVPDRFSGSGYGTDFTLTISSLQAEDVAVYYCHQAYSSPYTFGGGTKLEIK 79.7
